# measurement_context: in ethyl acetate, 305.65 K
measured_endpoint: solubility (mole fraction)

Enquiry: solubility (mole fraction) lookup needed for `CC(C)c1ncc[nH]1` , thanks.
Return: 0.0994

###

# measurement_context: in acetonitrile, 278.15 K
measured_endpoint: solubility (mole fraction)
Simply state the number, no unit and no words.

Enquiry: solubility (mole fraction) lookup needed for `CC(C)c1ncc[nH]1` , thanks.
Return: 0.0259

###

# measurement_context: in ethanol, 283.15 K
measured_endpoint: solubility (mole fraction)
Simply state the number, no unit and no words.

Enquiry: solubility (mole fraction) lookup needed for `CC(C)c1ncc[nH]1` , thanks.
Return: 0.203

###

# measurement_context: in ethyl acetate, 308.15 K
measured_endpoint: solubility (mole fraction)
Simply state the number, no unit and no words.

Enquiry: solubility (mole fraction) lookup needed for `CC(C)c1ncc[nH]1` , thanks.
Return: 0.105

###

# measurement_context: in n-propanol, 288.15 K
measured_endpoint: solubility (mole fraction)
Simply state the number, no unit and no words.

Enquiry: solubility (mole fraction) lookup needed for `CC(C)c1ncc[nH]1` , thanks.
Return: 0.117

###

# measurement_context: in n-propanol, 283.15 K
measured_endpoint: solubility (mole fraction)
Simply state the number, no unit and no words.

Enquiry: solubility (mole fraction) lookup needed for `CC(C)c1ncc[nH]1` , thanks.
Return: 0.109

###

# measurement_context: in toluene, 298.15 K
measured_endpoint: solubility (mole fraction)
Simply state the number, no unit and no words.

Enquiry: solubility (mole fraction) lookup needed for `CC(C)c1ncc[nH]1` , thanks.
Return: 0.0318

###

# measurement_context: in isopropanol, 313.15 K
measured_endpoint: solubility (mole fraction)
Simply state the number, no unit and no words.

Enquiry: solubility (mole fraction) lookup needed for `CC(C)c1ncc[nH]1` , thanks.
Return: 0.132

###

# measurement_context: in acetone, 285.65 K
measured_endpoint: solubility (mole fraction)

Enquiry: solubility (mole fraction) lookup needed for `CC(C)c1ncc[nH]1` , thanks.
Return: 0.103

###

# measurement_context: in 2-butanone, 310.65 K
measured_endpoint: solubility (mole fraction)
Simply state the number, no unit and no words.

Enquiry: solubility (mole fraction) lookup needed for `CC(C)c1ncc[nH]1` , thanks.
Return: 0.203

###

# measurement_context: in acetonitrile, 313.15 K
measured_endpoint: solubility (mole fraction)
Simply state the number, no unit and no words.

Enquiry: solubility (mole fraction) lookup needed for `CC(C)c1ncc[nH]1` , thanks.
Return: 0.0568

###

# measurement_context: in toluene, 303.15 K
measured_endpoint: solubility (mole fraction)

Enquiry: solubility (mole fraction) lookup needed for `CC(C)c1ncc[nH]1` , thanks.
Return: 0.0355

###

# measurement_context: in ethyl acetate, 288.15 K
measured_endpoint: solubility (mole fraction)
Simply state the number, no unit and no words.

Enquiry: solubility (mole fraction) lookup needed for `CC(C)c1ncc[nH]1` , thanks.
Return: 0.066

###

# measurement_context: in methanol, 285.65 K
measured_endpoint: solubility (mole fraction)

Enquiry: solubility (mole fraction) lookup needed for `CC(C)c1ncc[nH]1` , thanks.
Return: 0.252

###

# measurement_context: in ethanol, 295.65 K
measured_endpoint: solubility (mole fraction)

Enquiry: solubility (mole fraction) lookup needed for `CC(C)c1ncc[nH]1` , thanks.
Return: 0.243

###

# measurement_context: in isopropanol, 308.15 K
measured_endpoint: solubility (mole fraction)
Simply state the number, no unit and no words.

Enquiry: solubility (mole fraction) lookup needed for `CC(C)c1ncc[nH]1` , thanks.
Return: 0.121
